Catalogue of MIC values
# Test system: Salmonella enterica serovar Typhimurium SL1344
# assay-setup: LPM pH 5.8
Counter-ions that a name gives are not always drawn.

Below, 3 compounds whose answers are already recorded.
CN1C[C@H](CNC(=O)OCc2ccccc2)C[C@@H]2c3cccc4c3c(cn4C)C[C@H]21 = > 50 µM
CC(C)NC(=N)NC(=N)Nc1ccc(Cl)cc1 [CHLOROGUANIDE HYDROCHLORIDE] = > 50 µM
COc1cc(Cc2cnc(N)nc2N)cc(OC)c1OC = 3.13 µM

Input line: Looking for the measured MIC of O=S(=O)(O)NC1CCCCC1 , can you help?
Output line: > 50 µM

Input line: Looking for the measured MIC of O=c1[nH]c(=O)n([C@H]2C[C@H](O)[C@@H](CO)O2)cc1F , can you help?
Output line: ≤ 0.78 µM

Input line: Looking for the measured MIC of Oc1cc(Cl)ccc1Oc1ccc(Cl)cc1Cl , can you help?
Output line: ≤ 0.78 µM

Input line: Looking for the measured MIC of CCOC(=O)Nc1nc2ccccc2[nH]1 , can you help?
Output line: 50 µM

Input line: Looking for the measured MIC of CN1CCC(=C2c3ccccc3C=Cc3ccccc32)CC1 [CYPROHEPTADINE HYDROCHLORIDE] , can you help?
Output line: > 50 µM

Input line: Looking for the measured MIC of C=C1c2c(Cl)ccc(O)c2C(=O)C2=C(O)[C@]3(O)C(=O)C(C(N)=O)=C(O)[C@@H](N(C)C)[C@@H]3[C@@H](O)[C@H]12.O=C(O)c1cc(S(=O)(=O)O)ccc1O [MECLOCYCLINE SULFOSALICYLATE] , can you help?
Output line: ≤ 0.78 µM

Input line: Looking for the measured MIC of C[C@@H]1CN(c2c(F)c(F)c3c(=O)c(C(=O)O)cn(C4CC4)c3c2F)C[C@H](C)N1 , can you help?
Output line: 3.13 µM

Input line: Looking for the measured MIC of CCCCC(=O)O[C@]1(C(=O)CO)[C@@H](C)C[C@H]2[C@@H]3CCC4=CC(=O)C=C[C@]4(C)[C@@]3(F)[C@@H](O)C[C@@]21C [BETAMETHASONE VALERATE] , can you help?
Output line: > 50 µM

Input line: Looking for the measured MIC of CO[C@@H]1[C@@H](OC(N)=O)[C@@H](O)[C@H](Oc2ccc3c(O)c(NC(=O)c4ccc(O)c(CC=C(C)C)c4)c(=O)oc3c2C)OC1(C)C [NOVOBIOCIN SODIUM] , can you help?
Output line: 1.17 µM

Input line: Looking for the measured MIC of C=C1c2cccc(O)c2C(=O)C2=C(O)[C@]3(O)C(=O)C(C(N)=O)=C(O)[C@@H](N(C)C)[C@@H]3[C@@H](O)[C@H]12 [METHACYCLINE HYDROCHLORIDE] , can you help?
Output line: ≤ 0.78 µM

Input line: Looking for the measured MIC of CN(C)[C@@H]1C(O)=C(C(N)=O)C(=O)[C@@]2(O)C(O)=C3C(=O)c4c(O)cccc4[C@@](C)(O)[C@H]3[C@H](O)[C@@H]12 , can you help?
Output line: ≤ 0.78 µM

Input line: Looking for the measured MIC of C[C@]12CC[C@@H]3c4ccc(OC(=O)c5ccccc5)cc4CC[C@H]3[C@@H]1CC[C@@H]2O [ESTRADIOL BENZOATE] , can you help?
Output line: > 50 µM

// provenance: the supplement of paper PMC6331611
